Provenance of the data: ChEMBL document CHEMBL1142933

Tested on: HL-60
assaySummary: Inhibition of attachment of HL60 cells to E-selectin at 109 uM after 5 mins
Assay type: functional
conditionParameters: Homo sapiens, HL-60, 5 min

>  <mol>
O=C(O)Cc1cccc(NC(=O)CCc2cc(O)c(O)c(O)c2)c1

>  <inhibition at 109 µM>
19%

$$$$
>  <mol>
O=C(O)Cc1cccc(-c2cc(CCCCCCc3ccc(O[C@H]4O[C@H](CO)[C@@H](O)[C@H](O)[C@@H]4O)c(-c4cccc(CC(=O)O)c4)c3)ccc2O[C@H]2O[C@H](CO)[C@@H](O)[C@H](O)[C@@H]2O)c1

>  <inhibition at 109 µM>
28%

$$$$
>  <mol>
O=C(CCc1cc(O)c(O)c(O)c1)NCc1ccc(C(=O)O)cc1

>  <inhibition at 109 µM>
21%

$$$$
>  <mol>
Oc1cccc(O)c1O

>  <inhibition at 109 µM>
47%

$$$$
>  <mol>
O=C(O)Cc1ccc(-c2ccccc2NC(=O)c2cccc(-c3cc(O)c(O)c(O)c3)c2)s1

>  <inhibition at 109 µM>
32%

$$$$
>  <mol>
Cc1ccc(C(=O)O)cc1NC(=O)Cc1cc(O)c(O)c(O)c1

>  <inhibition at 109 µM>
22%

$$$$
>  <mol>
O=C(O)Cc1cccc(NC(=O)Cc2cc(O)c(O)c(O)c2)c1

>  <inhibition at 109 µM>
27%

$$$$
>  <mol>
Cc1c(NC(=O)Cc2cc(O)c(O)c(O)c2)cccc1C(=O)O

>  <inhibition at 109 µM>
19%

$$$$
